# targetSystem: PGPH component of the multicatalytic proteinase complex (MPC) (Bos taurus, UniProt Q3MHN0)
# Construct: The MPC was isolated from frozen bovine pituitaries; tissue PelFreeze, Inc. (Rogers, Ark.) (supplier of the tissue; the enzyme was purified in house); host or cells: bovine pituitaries
# procedureText: PGPH activity of the MPC with Cbz-Leu-Leu-Glu-2NA; IC50
# Type: biochemical, bovine
# condition: substrate concentration of 0.64 mM; absence of SDS; read-out: IC50, PGPH activity
# From the text: The MPC was isolated from frozen bovine pituitaries, obtained from PelFreeze, Inc. (Rogers, Ark.) essentially as described in Orlowski & Michaud, Biochemistry 28:9270-9277 (1989), incorporated herein by reference. The substrates Cbz-Gly-Gly-Leu-pNA, Cbz-D-Ala-Leu-Arg-2NA and Cbz-Leu-Leu-Glu-2NA were used to determine the activities of the ChT-L, T-L and PGPH components of the MPC, respectively, as previously described by Wilk and Orlowski, J. Neurochem. […]
Peptide text beside a SMILES is read from it. * marks the point of attachment. Cbz = O=C(OCc1ccccc1)*
reportedEndpoint: IC50 (µM)
Field: numeric (µM). Do not append units.

Item CC(C)C[C@@H](C=O)NC(=O)[C@H](Cc1ccccc1)NC(=O)[C@@H]1CCCN1C(=O)CNC(=O)OCc1ccccc1 [Cbz-Gly-Pro-Phe-Leu-CHO] (Cbz-GPFL-aldehyde) has what recorded IC50? 3.1

* * *

# targetSystem: ChT-L component of the multicatalytic proteinase complex (MPC) (Bos taurus)
# Construct: The MPC was isolated from frozen bovine pituitaries; tissue PelFreeze, Inc. (Rogers, Ark.) (supplier of the tissue; the enzyme was purified in house)
# procedureText: ChT-L activity of the MPC with Cbz-Gly-Gly-Leu-pNA; Ki by Dixon plots
# condition: substrate Cbz-Gly-Gly-Leu-pNA (0.1 to 0.4 MM); mean of 3 to 6 experiments ± SEM
Peptide text beside a SMILES is read from it. * marks the point of attachment. Cbz = O=C(OCc1ccccc1)*
reportedEndpoint: Ki (µM)
Field: numeric (µM). Do not append units.

Entry CC(C)C[C@@H](C=O)NC(=O)[C@H](C)NC(=O)CNC(=O)[C@@H]1CCCN1C(=O)OCc1ccccc1 [Cbz-Pro-Gly-Ala-Leu-CHO] (Cbz-PGAL-aldehyde) , system ChT-L component of the multicatalytic proteinase complex (MPC) (Bos taurus): what Ki was measured? 16.4

Entry C[C@H](NC(=O)[C@@H]1CCCN1C(=O)CNC(=O)OCc1ccccc1)C(=O)N[C@H](C=O)Cc1ccccc1 [Cbz-Gly-Pro-Ala-Phe-CHO] (Cbz-GPAF-aldehyde) , system ChT-L component of the multicatalytic proteinase complex (MPC) (Bos taurus): what Ki was measured? 1850

Entry CC(C)C[C@@H](C=O)NC(=O)[C@H](C)NC(=O)[C@@H]1CCCN1C(=O)CNC(=O)OCc1ccccc1 [Cbz-Gly-Pro-Ala-Leu-CHO] (Cbz-GPAL-aldehyde) , system ChT-L component of the multicatalytic proteinase complex (MPC) (Bos taurus): what Ki was measured? 471

Entry CC(C)[C@@H](C=O)NC(=O)[C@H](Cc1ccccc1)NC(=O)[C@@H]1CCCN1C(=O)CNC(=O)OCc1ccccc1 [Cbz-Gly-Pro-Phe-Val-CHO] (Cbz-GPFV-aldehyde) , system ChT-L component of the multicatalytic proteinase complex (MPC) (Bos taurus): what Ki was measured? 331

Entry CC(C)C[C@@H](C=O)NC(=O)[C@H](Cc1ccccc1)NC(=O)[C@@H]1CCCN1C(=O)CNC(=O)OCc1ccccc1 [Cbz-Gly-Pro-Phe-Leu-CHO] (Cbz-GPFL-aldehyde) , system ChT-L component of the multicatalytic proteinase complex (MPC) (Bos taurus): what Ki was measured? 40.5

* * *

What log10 of Ki was measured for each of the following?
# targetSystem: SNAAP component of the multicatalytic proteinase complex (MPC) (Bos taurus, UniProt Q2TBP0+Q32KL2+Q3MHN0)
# Construct: The MPC was isolated from frozen bovine pituitaries; tissue PelFreeze, Inc. (Rogers, Ark.) (supplier of the tissue; the enzyme was purified in house)
# procedureText: Activity of the SNAAP component of the MPC, coupled two step reaction with aminopeptidase N; Ki by Dixon plots
# condition: substrate Cbz-Gly-Pro-Ala-Gly-Gly-pAB (1 to 4 mill); mean of 3 to 6 experiments ± SEM
Peptide text beside a SMILES is read from it. * marks the point of attachment. Cbz = O=C(OCc1ccccc1)*
In plain terms, each number is the log10 of measured Ki in µM.

Item C[C@H](NC(=O)[C@@H]1CCCN1C(=O)CNC(=O)OCc1ccccc1)C(=O)N[C@H](C=O)Cc1ccccc1 [Cbz-Gly-Pro-Ala-Phe-CHO] (Cbz-GPAF-aldehyde) has what recorded log10 of Ki? 2.61

Item CC(C)C[C@@H](C=O)NC(=O)[C@H](C)NC(=O)[C@@H]1CCCN1C(=O)CNC(=O)OCc1ccccc1 [Cbz-Gly-Pro-Ala-Leu-CHO] (Cbz-GPAL-aldehyde) has what recorded log10 of Ki? 1.24

Item CC(C)C[C@@H](C=O)NC(=O)[C@H](Cc1ccccc1)NC(=O)[C@@H]1CCCN1C(=O)CNC(=O)OCc1ccccc1 [Cbz-Gly-Pro-Phe-Leu-CHO] (Cbz-GPFL-aldehyde) has what recorded log10 of Ki? 0.36

Item CC(C)C[C@@H](C=O)NC(=O)[C@H](C)NC(=O)CNC(=O)[C@@H]1CCCN1C(=O)OCc1ccccc1 [Cbz-Pro-Gly-Ala-Leu-CHO] (Cbz-PGAL-aldehyde) has what recorded log10 of Ki? 1.56

Item CC(C)[C@@H](C=O)NC(=O)[C@H](Cc1ccccc1)NC(=O)[C@@H]1CCCN1C(=O)CNC(=O)OCc1ccccc1 [Cbz-Gly-Pro-Phe-Val-CHO] (Cbz-GPFV-aldehyde) has what recorded log10 of Ki? 1.38

* * *

What pKi was measured for each of the following?
# targetSystem: BrAAP component of the multicatalytic proteinase complex (MPC) (Bos taurus, UniProt Q2TBP0+Q32KL2+Q3MHN0)
# Construct: The MPC was isolated from frozen bovine pituitaries; tissue PelFreeze, Inc. (Rogers, Ark.) (supplier of the tissue; the enzyme was purified in house); host or cells: bovine pituitaries
# procedureText: Activity of the BrAAP component of the MPC, coupled two step reaction with aminopeptidase N; Ki by Dixon plots
# Type: biochemical, bovine
# condition: substrate Cbz-Gly-Pro-Ala-Leu-Gly-pAB (1 to 4 mill); mean of 3 to 6 experiments ± SEM; read-out: Ki, BRAAP component
Peptide text beside a SMILES is read from it. * marks the point of attachment. Cbz = O=C(OCc1ccccc1)*
# reply with the number alone; pKi is -log10 of concentration in mol/L

Item CC(C)C[C@@H](C=O)NC(=O)[C@H](C)NC(=O)CNC(=O)[C@@H]1CCCN1C(=O)OCc1ccccc1 [Cbz-Pro-Gly-Ala-Leu-CHO] (Cbz-PGAL-aldehyde) has what recorded pKi? 3.98

Item CC(C)C[C@@H](C=O)NC(=O)[C@H](C)NC(=O)[C@@H]1CCCN1C(=O)CNC(=O)OCc1ccccc1 [Cbz-Gly-Pro-Ala-Leu-CHO] (Cbz-GPAL-aldehyde) has what recorded pKi? 4.86

Item CC(C)C[C@@H](C=O)NC(=O)[C@H](Cc1ccccc1)NC(=O)[C@@H]1CCCN1C(=O)CNC(=O)OCc1ccccc1 [Cbz-Gly-Pro-Phe-Leu-CHO] (Cbz-GPFL-aldehyde) has what recorded pKi? 5.82

Item C[C@H](NC(=O)[C@@H]1CCCN1C(=O)CNC(=O)OCc1ccccc1)C(=O)N[C@H](C=O)Cc1ccccc1 [Cbz-Gly-Pro-Ala-Phe-CHO] (Cbz-GPAF-aldehyde) has what recorded pKi? 3.52

Item CC(C)[C@@H](C=O)NC(=O)[C@H](Cc1ccccc1)NC(=O)[C@@H]1CCCN1C(=O)CNC(=O)OCc1ccccc1 [Cbz-Gly-Pro-Phe-Val-CHO] (Cbz-GPFV-aldehyde) has what recorded pKi? 4.33

* * *

# targetSystem: BrAAP component of the multicatalytic proteinase complex (MPC) (Bos taurus, UniProt Q2TBP0+Q32KL2+Q3MHN0)
# Construct: The MPC was isolated from frozen bovine pituitaries; tissue PelFreeze, Inc. (Rogers, Ark.) (supplier of the tissue; the enzyme was purified in house); host or cells: bovine pituitaries
# procedureText: Activity of the BrAAP component of the MPC, coupled two step reaction with aminopeptidase N; Ki by Dixon plots
# Format: biochemical, bovine
# condition: MPC exposed to DCI (10 μM); average of three determinations; read-out: Ki, BrAAP activity of the DCI-treated enzyme
Peptide text beside a SMILES is read from it. * marks the point of attachment. Cbz = O=C(OCc1ccccc1)*
reportedEndpoint: pKi
# reply with the number alone; pKi is -log10 of concentration in mol/L

Item CC(C)C[C@@H](C=O)NC(=O)[C@H](Cc1ccccc1)NC(=O)[C@@H]1CCCN1C(=O)CNC(=O)OCc1ccccc1 [Cbz-Gly-Pro-Phe-Leu-CHO] (Cbz-GPFL-aldehyde) has what recorded pKi? 5.78
